Task for the reader: assign each of the following compounds its reported EC50.
# system: Peroxisome proliferator-activated receptor gamma/Nuclear receptor coactivator 2 (Homo sapiens)
# Sequence (P37231 whole entry): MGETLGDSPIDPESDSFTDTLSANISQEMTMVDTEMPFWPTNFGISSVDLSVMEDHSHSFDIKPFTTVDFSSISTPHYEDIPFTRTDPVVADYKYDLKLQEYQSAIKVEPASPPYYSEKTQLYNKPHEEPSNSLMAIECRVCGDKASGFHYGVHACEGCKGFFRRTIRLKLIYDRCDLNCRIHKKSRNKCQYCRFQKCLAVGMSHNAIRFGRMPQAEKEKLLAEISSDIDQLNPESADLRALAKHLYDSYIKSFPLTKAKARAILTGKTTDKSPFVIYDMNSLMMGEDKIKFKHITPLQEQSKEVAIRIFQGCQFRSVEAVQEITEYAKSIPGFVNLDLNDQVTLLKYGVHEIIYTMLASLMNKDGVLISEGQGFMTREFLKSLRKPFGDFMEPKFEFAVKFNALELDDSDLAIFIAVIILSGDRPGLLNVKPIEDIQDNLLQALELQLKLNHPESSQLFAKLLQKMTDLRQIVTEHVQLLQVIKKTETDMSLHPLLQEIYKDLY
# Sequence (Q15596 whole entry, further chain): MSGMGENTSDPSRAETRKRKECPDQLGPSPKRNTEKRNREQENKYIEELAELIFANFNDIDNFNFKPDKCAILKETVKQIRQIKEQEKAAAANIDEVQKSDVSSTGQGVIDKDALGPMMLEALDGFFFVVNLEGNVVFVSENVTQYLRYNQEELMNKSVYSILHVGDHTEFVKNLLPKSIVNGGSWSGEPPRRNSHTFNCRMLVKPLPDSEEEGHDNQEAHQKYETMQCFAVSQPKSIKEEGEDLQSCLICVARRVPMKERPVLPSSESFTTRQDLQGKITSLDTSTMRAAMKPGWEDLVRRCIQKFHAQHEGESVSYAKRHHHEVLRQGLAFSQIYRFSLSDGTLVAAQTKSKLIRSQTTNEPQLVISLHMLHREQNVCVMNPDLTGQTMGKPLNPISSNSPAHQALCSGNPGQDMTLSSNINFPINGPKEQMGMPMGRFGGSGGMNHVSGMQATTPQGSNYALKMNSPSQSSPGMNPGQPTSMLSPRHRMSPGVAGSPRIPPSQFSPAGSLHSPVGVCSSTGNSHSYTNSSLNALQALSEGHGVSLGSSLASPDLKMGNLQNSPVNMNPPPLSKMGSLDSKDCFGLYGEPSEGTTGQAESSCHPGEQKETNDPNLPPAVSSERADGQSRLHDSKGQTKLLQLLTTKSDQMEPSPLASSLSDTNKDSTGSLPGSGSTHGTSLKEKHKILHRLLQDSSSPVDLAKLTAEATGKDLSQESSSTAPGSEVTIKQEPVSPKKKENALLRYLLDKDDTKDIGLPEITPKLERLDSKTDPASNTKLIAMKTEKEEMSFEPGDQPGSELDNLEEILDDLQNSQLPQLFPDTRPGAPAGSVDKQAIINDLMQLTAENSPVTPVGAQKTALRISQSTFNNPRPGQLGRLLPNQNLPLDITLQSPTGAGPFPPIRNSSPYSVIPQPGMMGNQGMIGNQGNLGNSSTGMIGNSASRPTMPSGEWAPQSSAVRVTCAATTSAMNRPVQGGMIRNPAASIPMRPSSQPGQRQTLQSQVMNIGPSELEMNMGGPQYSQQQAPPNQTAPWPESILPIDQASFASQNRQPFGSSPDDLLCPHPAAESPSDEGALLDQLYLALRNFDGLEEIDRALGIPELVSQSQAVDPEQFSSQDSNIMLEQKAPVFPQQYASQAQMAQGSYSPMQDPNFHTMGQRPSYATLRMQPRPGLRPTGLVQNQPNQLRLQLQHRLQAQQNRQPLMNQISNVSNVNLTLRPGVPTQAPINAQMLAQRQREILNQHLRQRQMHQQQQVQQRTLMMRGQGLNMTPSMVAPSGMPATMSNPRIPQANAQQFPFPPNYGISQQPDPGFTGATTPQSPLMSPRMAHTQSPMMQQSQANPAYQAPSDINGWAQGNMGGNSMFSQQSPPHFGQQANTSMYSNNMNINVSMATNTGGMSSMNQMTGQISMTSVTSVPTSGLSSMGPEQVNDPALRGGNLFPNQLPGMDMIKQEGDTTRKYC
# assay-remarks: TR-FRET dose response biochemical High Throughput Screening assay for agonists of the steroid receptor coactivator 2 (SRC-2) recruitment by the peroxisome proliferator-activated receptor gamma (PPAR gamma): non-selective agonists. [Related pubchem assays: 1297, 1032 ]
# Format: functional

Field: example entries. Status: answers known.
{"columns": ["compound", "EC50"],
 "data": [
  ["Nc1ccccc1-c1nnc(S)s1", "15.6 µM (not active)"],
  ["Cn1c(=O)cc(SCC(=O)Nc2cccnc2)c2ccccc21", "> 79.4 µM (not active)"],
  ["CC(=O)N1N=C(c2ccc(Br)cc2)CC1c1cn(C)c2ccccc12 (centres undefined)", "18.3 µM (not active)"]
]}

Alright, here's another compound for you.
Reported EC50, compound CCn1c(=O)cc(SCC(=O)N2CCN(C)CC2)c2ccccc21 : ____
> 79.4 µM (not active)

* * *

Task for the reader: assign each of the following compounds its reported AC50.
# system: Cytochrome P450 2C19 (Homo sapiens)
# Sequence (P33261 whole entry): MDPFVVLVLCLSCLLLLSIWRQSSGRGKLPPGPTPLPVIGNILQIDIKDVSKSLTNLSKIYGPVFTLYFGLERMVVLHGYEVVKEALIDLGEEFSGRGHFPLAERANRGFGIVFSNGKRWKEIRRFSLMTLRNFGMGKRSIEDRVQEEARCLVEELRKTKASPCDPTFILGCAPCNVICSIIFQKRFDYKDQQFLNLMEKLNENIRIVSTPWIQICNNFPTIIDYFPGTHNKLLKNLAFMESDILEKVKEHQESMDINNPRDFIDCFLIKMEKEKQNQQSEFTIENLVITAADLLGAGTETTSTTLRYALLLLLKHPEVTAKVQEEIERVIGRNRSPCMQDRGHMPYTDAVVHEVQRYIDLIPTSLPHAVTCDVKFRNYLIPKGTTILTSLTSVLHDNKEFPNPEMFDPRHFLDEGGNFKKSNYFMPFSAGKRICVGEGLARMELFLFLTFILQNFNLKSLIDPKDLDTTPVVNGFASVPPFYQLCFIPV
# assay-remarks: Cytochrome panel assay with activity outcomes. Panel member name: p450-cyp2c19 Compounds with AC50 equal or less than 10 uM are considered active
# Assay type: functional
# settings: read-out: AC50

{"columns": ["compound", "system", "AC50"],
 "data": [
  ["Cc1cc(-c2c(C)[nH]n(-c3ccccc3)c2=O)n(-c2ccccc2)n1", "Cytochrome P450 2C19 (Homo sapiens)", "20 µM (inconclusive)"],
  ["COc1ccc(OC)c2nc(O)c(CCNS(=O)(=O)c3ccc(Cl)cc3)cc12", "Cytochrome P450 2C19 (Homo sapiens)", "8.91 µM (inconclusive)"],
  ["Cc1ccc(-n2c(SCC(=O)NCc3ccco3)nc3sc4c(c3c2=O)CC(C)(C)SC4)cc1", "Cytochrome P450 2C19 (Homo sapiens)", "8.91 µM (inconclusive)"],
  ["CN(CCCNC(=O)C1CCN(S(=O)(=O)c2cccc3nsnc23)CC1)Cc1ccccc1", "Cytochrome P450 2C19 (Homo sapiens)", "39.8 µM (inconclusive)"]
]}

State the recorded AC50 for every item in the following list.
1. CC(C)c1ccc(NC(=O)C(c2ccccc2)N2CCN(C=O)CC2)cc1 (configuration not stated)
2. CCCc1cc(=O)oc2c(CN3CCOCC3)c(O)ccc12
3. COC(=O)c1ccc(NC(=O)C2CCCCC2C(=O)O)cc1 (configuration not stated)
4. Cc1nc2nc(C)c(CCC(=O)NCCCN3CCN(c4cccc(Cl)c4)CC3)c(C)n2n1
5. O=C(NNC(=O)c1ccccc1-n1cccc1)c1ccc(Cl)c(Cl)c1
6. COc1ccc(-n2c(=O)c(C)nc3cnc(Nc4cccc(OC)c4)nc32)cc1

28.2 µM (inconclusive)
25.1 µM (inconclusive)
0.0398 µM (inconclusive)
25.1 µM (inconclusive)
3.98 µM (inconclusive)
39.8 µM (inconclusive)

State the recorded AC50 for every item in the following list.
1. Cc1cc(NC(=O)COC(=O)c2ccc(NS(=O)(=O)c3ccc(C)c(C)c3)cc2)no1
2. COc1ccc(CCN2CC34C=CC(O3)C(C(=O)NCc3ccccc3)C4C2=O)cc1OC (configuration not stated)

1: 14.1 µM (inconclusive); 2: 14.1 µM (inconclusive)

* * *

# system: E3 ubiquitin-protein ligase XIAP (Homo sapiens, UniProt P98170)
# Sequence (P98170 whole entry): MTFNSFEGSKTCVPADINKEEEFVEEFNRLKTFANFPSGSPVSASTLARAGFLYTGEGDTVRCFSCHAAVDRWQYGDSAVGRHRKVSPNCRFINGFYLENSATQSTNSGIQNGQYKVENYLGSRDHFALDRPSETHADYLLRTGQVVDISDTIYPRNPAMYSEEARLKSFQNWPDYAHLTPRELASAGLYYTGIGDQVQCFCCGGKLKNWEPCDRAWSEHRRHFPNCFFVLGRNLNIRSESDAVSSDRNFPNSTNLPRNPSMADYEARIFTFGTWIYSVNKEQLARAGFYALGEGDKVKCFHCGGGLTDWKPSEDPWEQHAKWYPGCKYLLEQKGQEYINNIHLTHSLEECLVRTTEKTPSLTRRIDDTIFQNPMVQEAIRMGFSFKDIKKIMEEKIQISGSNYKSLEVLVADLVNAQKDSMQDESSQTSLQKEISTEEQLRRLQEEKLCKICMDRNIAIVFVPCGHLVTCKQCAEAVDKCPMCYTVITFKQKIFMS
# assay-remarks: Counter Screen using XIAP-Bir3 for Chemical Antagonists of Bir1/2 domains of IAP-family anti-apoptotic proteins. [Related pubchem assays (depositor defined):AID1018, AID1449, AID1514, AID1638, AID1749, AID1750, AID488957, AID488963]
Activity calls are given as the source filed them.
API: response.call in active, inactive

{"columns": ["molecule", "assigned-category"],
 "data": [
  ["Nc1ccc(O)c2c1C(=O)c1ccccc1C2=O", "active"]
]}

// return assay outcome for Cc1ccc(N(CC(=O)N/N=C/c2cccc(Br)c2)S(C)(=O)=O)cc1
inactive

// return assay outcome for O=C(NCc1ccc(Cl)cc1)c1ccc2[nH]cnc2c1
inactive

// return assay outcome for N#CC1(C#N)COC23CCCCC2C1(C#N)C(=N)O3 (stereo not given)
inactive

// return assay outcome for CC(C)CC1(C(=O)O)NC(c2ccccc2O)C2C(=O)N(C(C)C)C(=O)C21 (stereo not given)
inactive

* * *

Task for the reader: assign each of the following compounds its reported IC50.
# system: DNA dC->dU-editing enzyme APOBEC-3A (Homo sapiens)
# Sequence (P31941 whole entry): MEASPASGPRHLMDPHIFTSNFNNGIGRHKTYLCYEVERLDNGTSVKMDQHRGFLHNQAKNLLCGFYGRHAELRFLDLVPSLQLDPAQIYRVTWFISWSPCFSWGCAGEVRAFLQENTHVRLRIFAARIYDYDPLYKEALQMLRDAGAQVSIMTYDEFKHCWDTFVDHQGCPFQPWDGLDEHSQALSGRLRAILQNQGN
# assay-remarks: Dose Response confirmation of small molecule APOBEC3A DNA Deaminase Inhibitors via a fluorescence-based single-stranded DNA deaminase assay. [Related pubchem assays (depositor defined):AID493011, AID493024]
# Assay type: functional
Calls of active or inactive are those of the source.

Field: example entries. Status: answers known.
{"columns": ["compound", "system", "IC50"],
 "data": [
  ["COc1cc(/C=C(/C#N)C(=O)NCCCc2ccccc2)ccc1OCC(=O)O", "DNA dC->dU-editing enzyme APOBEC-3A (Homo sapiens)", "1610 nM (active)"],
  ["CCN1C(NCC2CC2)=N[C@@H](c2cccc(C(F)(F)F)c2)C(C(=O)OC)=C1C", "DNA dC->dU-editing enzyme APOBEC-3A (Homo sapiens)", "4220 nM (active)"],
  ["CCOc1ccc2c(c1)[N+](C)(C)C(C)(C)C=C2C", "DNA dC->dU-editing enzyme APOBEC-3A (Homo sapiens)", "2960 nM (active)"],
  ["CCn1c(SCC(=O)N2CCCC2)nnc1-c1ccc(N)cc1", "DNA dC->dU-editing enzyme APOBEC-3A (Homo sapiens)", "2310 nM (active)"]
]}

Alright, here's another compound for you.
// lookup IC50 | system=DNA dC->dU-editing enzyme APOBEC-3A (Homo sapiens) | key= C[N+]1(CC(O)c2ccccc2)CCCCCC1 (stereo not given)
2710 nM (active)

* * *

Task for the reader: assign each of the following molecules its reported EC50.
# assay-remarks: cytotoxicity toward NIH3T3 fibroblasts, dose response, counter-screen, cell-based, ATP luminescence, mouse fibroblasts (AID 2010);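 further: cells exposed to compound for about 90 hours before reading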
# Format: functional
Active and inactive are the calls of the source.

Field: example entries. Status: answers known.
{"columns": ["molecule", "EC50"],
 "data": [
  ["O=C(c1ccc(Cl)cc1Cl)C1(n2cncn2)Oc2ccccc2C1O (stereo not given)", "18 µM (active)"],
  ["CCOC(=O)N1CCN(CC(O)COCCC23CC4CC(CC(C4)C2)C3)CC1 (stereo not given)", "> 30 µM (not active)"],
  ["C[n+]1c2n(c3ccccc31)N=C(c1ccc(-c3ccccc3)cc1)CS2", "9.85 µM (active)"]
]}

State the recorded EC50 for every item in the following list.
1. C/C(=N\NC(=O)COc1ccccc1-c1ccccc1)c1ccc(O)cc1O
2. COc1ccc(OC)c(C2/C(=C(\O)c3ccccc3)C(C)=Nc3nc4ccccc4n32)c1 (stereo not given)

1: 4.94 µM (active); 2: > 60 µM (not active)

* * *

# system: Streptokinase A (Streptococcus pyogenes serotype M1)
# Sequence (P10520 whole entry): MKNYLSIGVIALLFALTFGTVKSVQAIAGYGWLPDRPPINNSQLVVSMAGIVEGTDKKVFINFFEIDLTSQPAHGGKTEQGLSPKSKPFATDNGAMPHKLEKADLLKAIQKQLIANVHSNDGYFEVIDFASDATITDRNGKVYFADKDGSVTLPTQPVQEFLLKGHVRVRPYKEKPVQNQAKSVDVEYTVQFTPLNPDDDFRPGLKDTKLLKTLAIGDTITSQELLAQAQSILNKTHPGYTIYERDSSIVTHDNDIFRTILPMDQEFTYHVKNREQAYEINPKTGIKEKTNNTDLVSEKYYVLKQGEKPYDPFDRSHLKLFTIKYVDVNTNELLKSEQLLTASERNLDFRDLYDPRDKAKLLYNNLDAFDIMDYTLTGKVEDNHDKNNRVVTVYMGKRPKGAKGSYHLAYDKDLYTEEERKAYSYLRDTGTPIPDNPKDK
# assay-remarks: S. pyogenes streptokinase expression inhibitors, potency, dose response, plasminogen activation absorbance, OD405 (AID 1914);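 further: secreted streptokinase activity via plasminogen activation per viability signal from cell pellet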
# Format: functional, Streptococcus pyogenes M1 GAS
The source made the active and inactive calls.
recorded-metric: EC50

{"columns": ["compound", "EC50"],
 "data": [
  ["FC(F)(F)c1cccc(NC(S)=Nc2ccc(Cl)cc2Cl)c1", "> 150 µM (not active)"],
  ["O=C(CN(C(=O)Cn1nnc(-c2ccccc2F)n1)c1cccc2c1CCCC2)NCc1ccccc1", "> 150 µM (not active)"]
]}

State the recorded EC50 for every item in the following list.
1. Cc1noc(C)c1CSc1nc2ccccc2nc1NS(=O)(=O)c1ccc(Cl)cc1
2. Cc1ccc(C)c(CN2CCCN(Cc3cc(C)ccc3C)S2(=O)=O)c1
3. O=C(O)C(c1ccccc1)N1C(=O)/C(=C\c2ccc(-c3ccc(Br)cc3)o2)SC1=S (stereo not given)

1: 5.51 µM (active); 2: 19.7 µM (active); 3: 1.55 µM (active)

* * *

# system: COUP transcription factor 2 (Homo sapiens, UniProt P24468);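 further: HEK293 cells transiently cotransfected with COUP-TFII expression vector and reporter; luciferase reporter luminescence driven by COUP-TFII from the pX2-168 reporter plasmid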
# Sequence (P24468 whole entry): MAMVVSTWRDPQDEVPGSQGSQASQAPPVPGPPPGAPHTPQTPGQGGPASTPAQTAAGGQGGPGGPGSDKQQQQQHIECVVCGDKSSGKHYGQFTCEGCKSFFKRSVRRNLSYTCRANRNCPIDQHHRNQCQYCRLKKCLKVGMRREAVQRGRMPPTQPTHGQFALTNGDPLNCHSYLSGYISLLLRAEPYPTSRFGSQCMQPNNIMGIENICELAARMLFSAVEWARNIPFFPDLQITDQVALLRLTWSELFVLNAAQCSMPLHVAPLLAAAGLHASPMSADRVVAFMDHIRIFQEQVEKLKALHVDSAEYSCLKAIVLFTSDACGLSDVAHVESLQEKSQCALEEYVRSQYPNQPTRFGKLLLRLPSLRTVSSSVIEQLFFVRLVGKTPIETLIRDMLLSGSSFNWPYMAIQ
# assay-remarks: Luminescence-based cell-based high throughput dose response assay to identify inhibitors of COUP-TFII (NR2F2).
# Format: functional
Activity calls are given as the source filed them.
Task for the reader: assign each of the following compounds its reported IC50.

Field: example entries. Status: answers known.
{"columns": ["compound", "system", "result"],
 "data": [
  ["C[n+]1c2n(c3ccccc31)N=C(c1ccc(-c3ccccc3)cc1)CS2", "COUP transcription factor 2 (Homo sapiens, UniProt P24468)", "5.03 µM (active)"],
  ["CC(=O)c1c(C)[nH]c(C(=O)OCC(=O)Nc2ccc(Cl)cc2[N+](=O)[O-])c1C", "COUP transcription factor 2 (Homo sapiens, UniProt P24468)", "6.5 µM (active)"],
  ["COC(=O)C1=C(c2ccc(-c3ccccc3)c(F)c2)C[C@@H]2CC[C@H]1N2C(=O)N1CCCC1", "COUP transcription factor 2 (Homo sapiens, UniProt P24468)", "8.17 µM (active)"],
  ["Cc1sc2ncnc(NCC3COc4ccccc4O3)c2c1C (stereo not given)", "COUP transcription factor 2 (Homo sapiens, UniProt P24468)", "3.38 µM (active)"]
]}

Reported IC50, compound Cc1ccc(-n2nc3c(=O)n(C(C)C(=O)NCCC4=CCCCC4)nc(C)c3c2C)cc1 (stereo not given) : ____
6.62 µM (active)
